test system: PC13/NR13; assay: SRB drug sensitivity, Compound-A-resistant PC-13/NR13; assay type: cell-based, human; conditions: Homo sapiens, PC-13; PC13/NR13; SRB, 72 hours with agent
Catalogue of compounds with associated IC50
reported-property: IC50

compound=COc1cccc2c1C(=O)c1c(O)c3c(c(O)c1C2=O)C[C@@](O)(C(=O)CO)C[C@@H]3O[C@H]1C[C@H](N)[C@H](O)[C@H](C)O1 recorded_value="70 nM"
compound=CC(=O)O[C@H]1C(=O)[C@@]2(C)[C@H]([C@H](OC(=O)c3ccccc3)[C@]3(O)C[C@H](OC(=O)[C@H](O)[C@@H](NC(=O)c4ccccc4)c4ccccc4)C(C)=C1C3(C)C)[C@]1(OC(C)=O)CO[C@@H]1C[C@@H]2O recorded_value="1.8 nM"
compound=CC[C@@]1(O)C(=O)OCc2c1cc1n(c2=O)Cc2cc3c(CN(C)C)c(O)ccc3nc2-1 recorded_value="1100 nM"
compound=CC[C@]1(O)C[C@H]2CN(CCc3c([nH]c4ccccc34)[C@@](C(=O)OC)(c3cc4c(cc3OC)N(C=O)[C@H]3[C@@](O)(C(=O)OC)[C@H](OC(C)=O)[C@]5(CC)C=CCN6CC[C@]43[C@@H]65)C2)C1 recorded_value="7 nM"
compound="COc1cc([C@@H]2c3cc4c(cc3[C@@H](O[C@@H]3O[C@@H]5CO[C@@H](C)O[C@H]5[C@H](O)[C@H]3O)[C@H]3COC(=O)[C@H]23)OCO4)cc(OC)c1O [Etoposide]" recorded_value="3000 nM"
compound=O=C1c2c(O)ccc(O)c2C(=O)c2c(NCCNCCO)ccc(NCCNCCO)c21 recorded_value="160 nM"
compound=CC[C@@]1(O)C(=O)OCc2c1cc1n(c2=O)Cc2cc3ccccc3nc2-1 recorded_value="29 nM"

# credit: patent US20070141619A1
